Experiment: Cytotoxicity assay, MTT, mock-infected HeLa
Type: cell-based
Conditions: human, mock-infected HeLa cells
Would you kindly list CC50 at 4 days for each of these molecules?

Name the reported CC50 at 4 days value associated with the molecule CC(C)c1ccc(-c2nc3cc(F)ccc3[nH]2)cc1
> 100 µM

Name the reported CC50 at 4 days value associated with the molecule CC(C)c1ccc(-c2nc3cc(Cl)ccc3[nH]2)cc1
100 µM

Name the reported CC50 at 4 days value associated with the molecule CC(C)c1ccc(-c2nc3cc(Cl)c(Cl)cc3[nH]2)cc1
8 µM

Name the reported CC50 at 4 days value associated with the molecule CC(C)(C)c1ccc(-c2nc3cc(F)c(F)cc3[nH]2)cc1
> 100 µM

Name the reported CC50 at 4 days value associated with the molecule CC(C)c1ccc(-c2nc3cc(F)c(F)cc3[nH]2)cc1
> 100 µM

Name the reported CC50 at 4 days value associated with the molecule CC(C)c1ccc(-c2nc3ccccc3[nH]2)cc1
9 µM

Name the reported CC50 at 4 days value associated with the molecule CC(C)(C)c1ccc(-c2nc3cc(Cl)ccc3[nH]2)cc1
100 µM

Name the reported CC50 at 4 days value associated with the molecule CC(C)(C)c1ccc(-c2nc3ccccc3[nH]2)cc1
9 µM

Name the reported CC50 at 4 days value associated with the molecule CC(C)(C)c1ccc(-c2nc3cc(Cl)c(Cl)cc3[nH]2)cc1
6.4 µM

Name the reported CC50 at 4 days value associated with the molecule CC(C)(C)c1ccc(-c2nc3cc(F)ccc3[nH]2)cc1
> 100 µM
